# ASSAY DETAILS: Cytotoxicity against human THP1 cells incubated for 92 hrs by MTT assay
# Format: cell-based
# ASSAY CONDITIONS: THP-1 cells
OBSERVED PROPERTY: CC50 at 92 h

In [3]: df
Out[3]:
                                smiles_code  observed_property  value_measured
0  COc1cc(O)c2c(=O)c(OC)c(-c3cc(O)c(O)c(OC)c3)oc2c1       CC50 at 92 h          124 µM
